# experimental-target: NS3-NS4A protease (Hepatitis C virus genotype 1a)
# Construct: Recombinant E. coli or Baculovirus full-length NS3 was diluted to 3.33 μM with assay buffer; made in house; host or cells: E. coli or baculovirus (BV) system
# Sequence (P27958 1027-1657): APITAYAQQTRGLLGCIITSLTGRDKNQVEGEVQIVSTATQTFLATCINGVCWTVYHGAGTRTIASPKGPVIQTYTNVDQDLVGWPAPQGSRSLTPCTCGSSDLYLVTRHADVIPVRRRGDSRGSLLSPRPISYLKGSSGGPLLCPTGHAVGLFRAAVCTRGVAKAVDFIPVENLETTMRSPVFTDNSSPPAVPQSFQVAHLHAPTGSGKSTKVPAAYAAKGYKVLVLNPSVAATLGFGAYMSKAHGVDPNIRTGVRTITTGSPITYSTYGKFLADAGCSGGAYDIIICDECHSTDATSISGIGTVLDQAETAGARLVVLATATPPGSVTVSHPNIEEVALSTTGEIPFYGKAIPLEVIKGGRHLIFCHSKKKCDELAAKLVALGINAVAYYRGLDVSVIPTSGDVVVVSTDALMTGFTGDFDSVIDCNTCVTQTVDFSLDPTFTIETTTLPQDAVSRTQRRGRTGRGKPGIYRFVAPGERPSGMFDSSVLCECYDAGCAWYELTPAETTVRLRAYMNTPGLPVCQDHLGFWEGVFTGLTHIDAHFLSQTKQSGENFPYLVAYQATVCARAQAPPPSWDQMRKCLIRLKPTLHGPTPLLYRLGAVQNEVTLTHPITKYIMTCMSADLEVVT
# method-notes: NS3-NS4A protease assay (NS3 inhibition assay, RETS1 substrate), Section B
# Format: biochemical
# test-settings: read-out: NS3-NS4A IC50
pIC50: −log10 of the molar value.
experimental-readout: pIC50

- compound: "CC(C)(C)OC(=O)N[C@H]1CCCCC/C=C\\[C@@H]2C[C@@]2(C(=O)O)NC(=O)[C@@H]2C[C@@H](OC(=O)N3CCc4ccccc4C3)CN2C1=O [AR00220042]"
  result: "> 6.00"
- compound: "O=C(N[C@H]1CCCCCC=C[C@@H]2C[C@@]2(C(=O)O)NC(=O)[C@@H]2C[C@@H](OC(=O)N3CCc4cccc(C(F)(F)F)c4C3)CN2C1=O)OC1CCCC1 [AR00304075]"
  result: "> 6.00"
- compound: "O=C(NC1CCCC1)N[C@H]1CCCCC/C=C\\[C@@H]2C[C@@]2(C(=O)O)NC(=O)[C@@H]2C[C@@H](OC(=O)N3CCc4ccccc4C3)CN2C1=O [AR00294378]"
  result: "> 6.00"
- compound: "O=C(N[C@H]1CCCCC/C=C\\[C@@H]2C[C@@]2(C(=O)O)NC(=O)[C@@H]2C[C@@H](OC(=O)N3CCc4ccccc4C3)CN2C1=O)OC1CCOCC1 [AR00320002]"
  result: "> 6.00"
- compound: "CC(C)(C)OC(=O)N[C@H]1CCCCC/C=C\\[C@@H]2C[C@@]2(C(=O)O)NC(=O)[C@@H]2C[C@@H](OC(=O)N3CCc4c(N)cccc4C3)CN2C1=O [AR00301745]"
  result: "> 6.00"
- compound: "O=C(N[C@H]1CCCCC/C=C\\[C@@H]2C[C@@]2(C(=O)NS(=O)(=O)C2CC2)NC(=O)[C@@H]2C[C@@H](OC(=O)N3CCc4ccccc4C3)CN2C1=O)O[C@@H]1CCOC1 [AR00304163]"
  result: "> 7.00"
- compound: "COc1ccc2c(c1)CCN(C(=O)O[C@@H]1C[C@H]3C(=O)N[C@]4(C(=O)O)C[C@H]4/C=C\\CCCCC[C@H](NC(=O)OC(C)(C)C)C(=O)N3C1)C2CN1CCCCC1 (some centres unmarked) [AR00333248]"
  result: "> 5.00"
- compound: "CC1CN(C(=O)O[C@@H]2C[C@H]3C(=O)N[C@]4(C(=O)NS(=O)(=O)C5CC5)C[C@H]4/C=C\\CCCCC[C@H](NC(=O)OC(C)(C)C)C(=O)N3C2)Cc2ccccc21 (some centres unmarked) [AR00312026]"
  result: "> 7.00"
- compound: "O=C(CC1CCCC1)N[C@H]1CCCCC/C=C\\[C@@H]2C[C@@]2(C(=O)NS(=O)(=O)C2CC2)NC(=O)[C@@H]2C[C@@H](OC(=O)N3Cc4ccc(Cl)cc4C3)CN2C1=O [AR00334226]"
  result: "> 7.00"
- compound: "O=C(NC1CCCC1)N[C@H]1CCCCC/C=C\\[C@@H]2C[C@@]2(C(=O)NS(=O)(=O)C2CC2)NC(=O)[C@@H]2C[C@@H](OC(=O)N3CCc4c(F)cccc4C3)CN2C1=O [AR00304080]"
  result: "> 7.00"
- compound: "COCC1c2cccc(F)c2CCN1C(=O)O[C@@H]1CC2C(=O)N[C@]3(C(=O)O)C[C@H]3/C=C\\CCCCC[C@H](NC(=O)OC3CCCC3)C(=O)N2C1 (some centres unmarked) [AR00365381]"
  result: "> 6.00"
